- Test system: Trypanosoma brucei Lister 427 VSG221 with APOL1 G0 recombinant protein
- assay info: APOL1 G0 trypanosome cell rescue assay (Example B5)
- Format: cell-based
- test parameters: read-out: APOL1 G0 Trypanosome Rescue EC50; Trypanosoma brucei Lister 427 VSG221 with APOL1 G0 recombinant protein, 20 hours, CellTiter-Glo; geometric mean of at least 2 assay runs; † = single assay run
observable: EC50
Don't forget the unit after the number, please.

(Q) Would you mind telling me what EC50 value was observed for CN=S(C)(=O)c1ccc(OCCN2CCC3(CC2)C(=O)Nc2ccc(C#N)cc23)cc1 (single isomer, unassigned) ?
(A) 1050 nM

(Q) Would you mind telling me what EC50 value was observed for CC1(O)CC(CN2C(=O)CCc3cc(OCCN4CCC5(CC4)C(=O)Nc4ccc(Cl)cc45)cnc32)C1 (single isomer, unassigned) ?
(A) 29.3 nM

(Q) Would you mind telling me what EC50 value was observed for O=C1NCC2c3ccc(OCCN4CCC5(CC4)C(=O)Nc4ccc(Cl)cc45)cc3CCN12 (single isomer, unassigned) [Compound 117] ?
(A) 309 nM

(Q) Would you mind telling me what EC50 value was observed for CC1(O)CC(c2ncc(OCCN3CCC4(CC3)C(=O)Nc3ccc(Cl)cc34)cn2)C1 (single isomer, unassigned) [Compound 393] ?
(A) 300 nM

(Q) Would you mind telling me what EC50 value was observed for CC(c1c(F)cc(OCCN2CCC3(CC2)C(=O)Nc2ccc(C#N)cc23)cc1F)S(C)(=O)=O (single isomer, unassigned) ?
(A) 335 nM

(Q) Would you mind telling me what EC50 value was observed for CN=S(C)(=O)c1ccc(OCCN2CCC3(CC2)C(=O)Nc2ccc(Cl)cc23)cc1 (single isomer, unassigned) ?
(A) 117 nM

(Q) Would you mind telling me what EC50 value was observed for CS(=O)(=O)C1(c2ccc(OCCN3CCC4(CC3)C(=O)Nc3ccc(Cl)cc34)cc2)CC(O)C1 (stereo not drawn) [Compound 268] ?
(A) 108 nM

(Q) Would you mind telling me what EC50 value was observed for CN1C(=O)C2(CCN(CCOc3ccc(C4(S(C)(=O)=O)CC(O)C4)cc3)CC2)c2cc(C(F)F)ccc21 (single isomer, unassigned) ?
(A) 213 nM

(Q) Would you mind telling me what EC50 value was observed for CC(O)c1ncc(OCCN2CCC3(CC2)C(=O)Nc2ccc(Cl)cc23)cn1 (single isomer, unassigned) ?
(A) 505 nM

(Q) Would you mind telling me what EC50 value was observed for O=C1CCC2c3ccc(OCCN4CCC5(CC4)C(=O)Nc4ccc(Cl)cc45)cc3CCN12 (single isomer, unassigned) ?
(A) 178 nM

(Q) Would you mind telling me what EC50 value was observed for CC(c1ccc(OCCN2CCC3(CC2)C(=O)Nc2ccc(C#N)cc23)cc1)S(C)(=O)=O (single isomer, unassigned) ?
(A) 1080 nM

(Q) Would you mind telling me what EC50 value was observed for CC(O)c1ncc(OCCN2CCC3(CC2)C(=O)Nc2ccc(C#N)cc23)cc1C(F)(F)F (single isomer, unassigned) [Compound 377] ?
(A) 205 nM

(Q) Would you mind telling me what EC50 value was observed for O=C1Nc2ccc(Cl)cc2C12CCN(CCOc1ccc(C3CCCS3(=O)=O)cc1)CC2 (single isomer, unassigned) [Compound 176] ?
(A) 120 nM

(Q) Would you mind telling me what EC50 value was observed for CC(O)c1ncc(OCCN2CCC3(CC2)C(=O)Nc2ccc(C(F)F)cc23)cc1C(F)(F)F (single isomer, unassigned) ?
(A) 26.2 nM

(Q) Would you mind telling me what EC50 value was observed for CC(O)c1ncc(OCCN2CCC3(CC2)C(=O)Nc2ccc(Cl)cc23)cc1C(F)(F)F (single isomer, unassigned) ?
(A) 31.6 nM

(Q) Would you mind telling me what EC50 value was observed for CC1(O)CC(CN2C(=O)CCc3cc(OCCN4CCC5(CC4)C(=O)Nc4ccc(C(F)F)cc45)cnc32)C1 (single isomer, unassigned) ?
(A) 28.2 nM

(Q) Would you mind telling me what EC50 value was observed for CS(=O)(=O)C1(c2ccc(OCCN3CCC4(CC3)C(=O)Nc3ccc(Cl)cc34)cc2)CC(O)C1 (stereo not drawn) [Compound 269] ?
(A) 207 nM

(Q) Would you mind telling me what EC50 value was observed for CS(=O)(=O)C1(c2ccc(OCCN3CCC4(CC3)C(=O)Nc3ccc(Cl)cc34)cc2)CC(O)C1 (stereo not drawn) [Compound 270] ?
(A) 72.5 nM

====

- System: HEK293 cells overexpressing APOL1 G2
- assay info: APOL1 G2 HEK293 cell rescue assay (reversal of cell death caused by overexpression of APOL1)
- Type: cell-based
- test parameters: Homo sapiens, HEK293, HEK293 overexpressing APOL1 G2; geometric mean of at least 2 assay runs; † = single assay run
- Experimental: Unless otherwise specified, EC50 values are reported as the geometric mean of at least 2 assay runs on separate days. Each run represents the average of a technical replicate, where each compound was assayed twice in the same plate. A superscript t symbol indicates a value from the average of a technical replicate from a single assay run, where each compound was assayed twice in the same plate. […]
pEC50: −log10 of the molar value.
Output class 1 for pEC50 not less than 7; output class 0 otherwise.

(Q) Does the reported pEC50 for O=C1Nc2ccc(Cl)cc2C12CCN(CCOc1cnc(N3CC4(CC(O)C4)C3)nc1)CC2 fall at or above the 7 mark?
(A) class 1

(Q) Does the reported pEC50 for CC(c1ccc(OCCN2CCC3(CC2)C(=O)Nc2ccc(C#N)cc23)cc1)S(C)(=O)=O (single isomer, unassigned) [Compound 134] fall at or above the 7 mark?
(A) class 0

(Q) Does the reported pEC50 for CN1C(=O)C2(CCN(CCOc3ccc4ncn(C)c(=O)c4c3)CC2)c2ccccc21 fall at or above the 7 mark?
(A) class 0

(Q) Does the reported pEC50 for CS(C)(=O)=Nc1ccc(OCCN2CCC3(CC2)C(=O)Nc2ccc(C#N)cc23)cc1 fall at or above the 7 mark?
(A) class 0

(Q) Does the reported pEC50 for [2H]C([2H])([2H])N1C(=O)C2(CCN(CCOc3ccc(C4(S(=O)(=O)C(C)C)COC4)cc3)CC2)c2cc(Cl)ccc21 fall at or above the 7 mark?
(A) class 1

(Q) Does the reported pEC50 for C[C@]1(O)C[C@@H](n2cnc3cc(OCCN4CCC5(CC4)C(=O)Nc4ccc(C#N)cc45)cc(C(F)F)c32)C1 fall at or above the 7 mark?
(A) class 1

(Q) Does the reported pEC50 for O=C1Nc2ccc(Cl)cc2C12CCN(CCOc1ccc(S(=O)(=O)[C@H]3C[C@@H](O)C3)cc1)CC2 fall at or above the 7 mark?
(A) class 1

(Q) Does the reported pEC50 for CC(=O)N1CCc2cc(OCCN3CCC4(CC3)C(=O)Nc3ccc(Cl)cc34)ccc2C1 fall at or above the 7 mark?
(A) class 0

(Q) Does the reported pEC50 for CC1(S(=O)(=O)c2ccc(OCCN3CCC4(CC3)C(=O)Nc3ccc(Cl)cc34)cc2)COC1 fall at or above the 7 mark?
(A) class 1

(Q) Does the reported pEC50 for N#Cc1ccc2c(c1)C1(CCN(CCOc3ccc(C4(C(=O)N5CCC5)COC4)cc3)CC1)C(=O)N2 fall at or above the 7 mark?
(A) class 0

(Q) Does the reported pEC50 for O=C1Nc2ccc(Cl)cc2C12CCN(CCOc1ccc(C3CCCS3(=O)=O)cc1)CC2 (single isomer, unassigned) [Compound 176] fall at or above the 7 mark?
(A) class 1

(Q) Does the reported pEC50 for N#Cc1ccc2c(c1)C1(CCN(CCOc3ccc(C4(C(=O)N5CC(F)C5)COC4)cc3)CC1)C(=O)N2 fall at or above the 7 mark?
(A) class 0

(Q) Does the reported pEC50 for COCCN1C(=O)C2(CCN(CCOc3ccc(S(C)(=O)=O)cc3)CC2)c2cc(C#N)ccc21 fall at or above the 7 mark?
(A) class 0

(Q) Does the reported pEC50 for CN1C(=O)C2(CCN(CCOc3ccc(N4CCCC4=O)cc3)CC2)c2ccccc21 fall at or above the 7 mark?
(A) class 0

(Q) Does the reported pEC50 for CS(=O)(=O)c1c(F)cc(OCCN2CCC3(CC2)C(=O)Nc2ccc(Cl)cc23)cc1F fall at or above the 7 mark?
(A) class 1

(Q) Does the reported pEC50 for CC(COc1ccc(C2(S(C)(=O)=O)COC2)cc1)N1CCC2(CC1)C(=O)Nc1ccc(C#N)cc12 (stereo not shown) fall at or above the 7 mark?
(A) class 0

(Q) Does the reported pEC50 for O=C1Nc2ccc(Cl)cc2C12CCN(CCOc1ccc3c(cnn3[C@H]3C[C@H](O)C3)c1)CC2 fall at or above the 7 mark?
(A) class 1

(Q) Does the reported pEC50 for CS(=O)(=O)C1(c2ccc(OCCN3CCC4(CC3)C(=O)Nc3ccc(C#N)cc34)cc2)CC1 fall at or above the 7 mark?
(A) class 1

(Q) Does the reported pEC50 for CC1(C)OC(=O)c2cc(OCCN3CCC4(CC3)C(=O)Nc3ccc(Cl)cc34)cnc21 fall at or above the 7 mark?
(A) class 1
